Can you tell me growth for the items I'm about to list?
system: M14 melanoma; experiment: NCI-60 one-dose screen, 48 h (100 = growth as untreated, 0 = no growth, -100 = all killed); details: 10 µM unless noted
The panel holds about 83,000 compounds, 20% with a hit somewhere; the sample as a whole holds those more often.
Give bare numbers, in %.

The cases that follow already have their growth on record.
CC1CCN(S(=O)(=O)c2ncsc2-c2ccccc2)CC1 : 83.5
CN1CCN(c2ccc(C(=O)Nc3cccc(-c4cn(-c5ccc(S(N)(=O)=O)cc5)nn4)c3)cc2C(F)(F)F)CC1 : 82.2
CCOC(=O)c1nn(-c2ccccc2)c(=O)c2c(N)c(C#N)c(-c3cccs3)cc12 : 94.4
O=C1c2c(c3c4ccc(Br)cc4oc3c3[nH]c4ccccc4c23)C(=O)N1CCO : 29.8

Provide the reported growth of each entry below, same order.
1. CCOC(=O)C1=C(C)Nc2nnc(Nc3ccccc3)n2C1c1ccccc1 (stereo unspecified)
2. CC1=CC(=O)CC(C)(C)[C@@]1(O)/C=C/C(C)=C\C(=O)O
3. O=C(NNc1nc2cc(F)c(F)cc2n2cccc12)c1ccncn1
4. CC1CCc2c(sc3nc(SCC(=O)N/N=C/c4ccc(Cl)cc4)n(-c4ccccc4)c(=O)c23)C1 (stereo unspecified)
5. C#CCOc1ccc(C(Nc2ccc(OC)cc2)c2nnnn2C2CCCCC2)cc1 (stereo unspecified)
6. CC(=O)Nc1ccc(C)c(Nc2cc(-c3ccc(-n4cccn4)cc3)[nH]n2)c1
7. Cc1ccc(-c2cc(-c3ccc(N(C)C)cc3)n3c(n2)nc2ccccc23)cc1
8. CN1CCN(c2ccc3c(c2)nc(NNC(=O)c2ccncn2)c2cccn23)CC1

A:
1: 100; 2: -77.3; 3: 12.9; 4: 102; 5: 97.2; 6: 19.2; 7: 77.2; 8: 9.89

Please give growth for each item listed below.
1. Cc1ccc(-c2cc3nc(C(Cl)Cl)nc(-c4ccccc4)n3n2)cc1
2. NS(=O)(=O)c1ccc(Nc2nc(N/N=C/c3ccc([N+](=O)[O-])cc3)nc(Nc3ccccc3)n2)cc1
3. COc1cc(CNC(=O)/C=C/c2ccccc2)ccc1OCC(=O)NO
4. COc1cnc2c(c1)C(=O)c1c-2n(CCCn2ccnc2)c(=O)c2cc(OC)c(OC)cc12

A:
112
13.3
100
-86.5

* * *

test system: HCT-116 colon; experiment: NCI-60 one-dose screen, 48 h (100 = growth as untreated, 0 = no growth, -100 = all killed); details: 10 µM unless noted
Compounds without any hit were thinned out: in the full panel of roughly 83,000, 20% have a hit.
Cut-off 40% on growth, inclusive. At or above means TRUE; below means FALSE.

COC1=C(c2ccccc2)C(=O)C(OC)=C(c2ccccc2)C1=O : TRUE
O=C(COc1ccc(C2SCC(=O)N2c2ccccc2)cc1)c1ccccc1 (stereo not drawn) : TRUE
Cc1nn(-c2ccccc2)cc1/C=N/Nc1nc(Nc2ccccc2)nc(Nc2ccc(S(N)(=O)=O)cc2)n1 : FALSE

Q: Identify whether the reported growth of the following compound is 40% or greater: `O=C1/C(=C/c2ccccc2[N+](=O)[O-])Oc2ccc(O)cc21`
A: FALSE

Q: # bool: growth of `COc1ccc(-c2nnc(/N=C3/C(=O)Nc4ccc(Br)cc43)o2)cc1` >= 40%
A: TRUE

Q: growth >= 40% for `Fc1ccccc1/C=C(/C1=NCCN1)n1cnc2ccccc21` ?
A: TRUE

Q: Quick check: does `C/C=C/C=C1\C[C@H]2CO[C@H](O2)C1=O` have growth greater than or equal to 40%?
A: TRUE
